Where do these numbers come from? They come from patent US20250215012A1.

Molecular target: IKZF2 (Homo sapiens (Human), UniProt Q96SW2+Q9UKS7)
Sequence (Q9UKS7 whole entry): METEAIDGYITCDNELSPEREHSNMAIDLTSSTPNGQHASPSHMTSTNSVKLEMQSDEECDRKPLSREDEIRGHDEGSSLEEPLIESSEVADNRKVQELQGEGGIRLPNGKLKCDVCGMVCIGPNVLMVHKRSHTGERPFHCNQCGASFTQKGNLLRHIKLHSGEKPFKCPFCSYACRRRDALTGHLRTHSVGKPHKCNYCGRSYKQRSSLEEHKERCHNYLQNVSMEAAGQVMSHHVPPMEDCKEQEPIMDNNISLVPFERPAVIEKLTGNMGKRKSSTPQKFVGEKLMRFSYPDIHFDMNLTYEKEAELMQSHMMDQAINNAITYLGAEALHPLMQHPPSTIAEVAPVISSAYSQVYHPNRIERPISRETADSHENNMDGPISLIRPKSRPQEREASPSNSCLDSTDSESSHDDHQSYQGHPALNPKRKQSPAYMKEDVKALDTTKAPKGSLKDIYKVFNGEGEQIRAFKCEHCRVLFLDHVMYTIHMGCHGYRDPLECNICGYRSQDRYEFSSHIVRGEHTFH
Sequence (Q96SW2 whole entry): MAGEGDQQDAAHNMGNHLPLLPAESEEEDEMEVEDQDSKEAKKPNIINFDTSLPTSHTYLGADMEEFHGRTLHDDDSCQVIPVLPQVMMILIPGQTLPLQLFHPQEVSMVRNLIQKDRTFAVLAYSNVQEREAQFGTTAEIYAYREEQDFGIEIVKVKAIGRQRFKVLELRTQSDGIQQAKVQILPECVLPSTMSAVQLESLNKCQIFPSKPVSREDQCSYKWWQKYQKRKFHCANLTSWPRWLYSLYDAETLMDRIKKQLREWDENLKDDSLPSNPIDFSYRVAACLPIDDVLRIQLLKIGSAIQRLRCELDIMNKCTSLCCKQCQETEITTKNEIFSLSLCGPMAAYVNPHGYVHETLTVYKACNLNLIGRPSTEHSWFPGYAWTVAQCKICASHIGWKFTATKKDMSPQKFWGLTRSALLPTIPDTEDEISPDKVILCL
Sequence (Q16531 whole entry partner): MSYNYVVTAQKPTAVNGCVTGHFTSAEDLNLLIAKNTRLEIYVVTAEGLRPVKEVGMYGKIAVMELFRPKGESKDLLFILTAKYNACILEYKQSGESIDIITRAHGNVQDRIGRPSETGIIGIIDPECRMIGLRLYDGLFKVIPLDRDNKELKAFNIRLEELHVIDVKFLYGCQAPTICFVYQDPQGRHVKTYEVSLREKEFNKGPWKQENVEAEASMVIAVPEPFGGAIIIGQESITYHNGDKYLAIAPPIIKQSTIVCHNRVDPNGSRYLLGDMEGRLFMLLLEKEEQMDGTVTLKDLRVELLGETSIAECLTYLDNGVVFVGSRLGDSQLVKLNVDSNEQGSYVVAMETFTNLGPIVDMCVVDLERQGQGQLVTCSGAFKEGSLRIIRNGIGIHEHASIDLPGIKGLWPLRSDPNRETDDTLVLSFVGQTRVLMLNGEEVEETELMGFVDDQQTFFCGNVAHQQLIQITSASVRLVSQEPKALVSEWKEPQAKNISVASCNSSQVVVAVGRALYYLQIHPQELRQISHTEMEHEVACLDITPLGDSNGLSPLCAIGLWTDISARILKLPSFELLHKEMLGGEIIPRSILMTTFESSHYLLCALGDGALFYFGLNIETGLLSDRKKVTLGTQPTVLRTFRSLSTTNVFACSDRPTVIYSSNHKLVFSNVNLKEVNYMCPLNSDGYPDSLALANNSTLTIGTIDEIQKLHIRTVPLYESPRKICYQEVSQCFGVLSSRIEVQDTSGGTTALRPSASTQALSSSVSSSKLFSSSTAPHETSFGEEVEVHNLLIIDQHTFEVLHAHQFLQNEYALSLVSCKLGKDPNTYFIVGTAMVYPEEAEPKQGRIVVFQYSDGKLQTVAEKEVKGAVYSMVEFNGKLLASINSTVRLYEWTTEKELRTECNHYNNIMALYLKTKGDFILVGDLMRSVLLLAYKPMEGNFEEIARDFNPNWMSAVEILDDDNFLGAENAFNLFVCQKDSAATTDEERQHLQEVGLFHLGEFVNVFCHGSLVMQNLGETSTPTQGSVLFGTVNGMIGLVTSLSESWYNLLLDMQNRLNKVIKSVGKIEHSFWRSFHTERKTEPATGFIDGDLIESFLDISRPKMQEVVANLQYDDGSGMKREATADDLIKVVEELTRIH
Assay: IKZF2 HiBiT Assay (Jurkat-IKZF2-HiBiT cell line)
Type: cell-based
Conditions: Jurkat-IKZF2-HiBiT cells, 24 hours; read-out: HiBit assay degradation analysis Dmax
Reported Dmax values are given for each entry in this list.

molecule | Dmax
O=C1CCC(N2Cc3c(ccc4c3OCC43CCN(Cc4cccc(Oc5ccccn5)c4)CC3)C2=O)C(=O)N1 (centres unmarked) | 60 to 80%
Cn1cnc2ccc(CN3CCC4(CC3)COc3c4ccc4c3CN(C3CCC(=O)NC3=O)C4=O)cc21 (centres unmarked) | 40 to 60%
COCn1cc(-c2cccc(CN3CCC4(CC3)COc3c4ccc4c3CN([C@H]3CCC(=O)NC3=O)C4=O)c2)cn1 | 60 to 80%
O=C1CC[C@H](N2Cc3c(ccc4c3OCC43CCN(Cc4cccc(-c5cnn(CC6COC6)c5)c4)CC3)C2=O)C(=O)N1 | < 40%
O=C1CCC(N2Cc3c(ccc4c3OCC43CCN(Cc4cccc(N5CCOCC5)c4)CC3)C2=O)C(=O)N1 (centres unmarked) | 40 to 60%
O=C1CCC(N2Cc3c(ccc4c3OCC43CCN(CC4CC5CCC4C5)CC3)C2=O)C(=O)N1 (centres unmarked) | 40 to 60%
O=C1CCC(N2Cc3c(ccc4c3OCC43CCN(CC4(c5ccccc5)CC4)CC3)C2=O)C(=O)N1 (centres unmarked) | 40 to 60%
O=C1CCC(N2Cc3c(ccc4c3OCC43CCN(Cc4cccc5c4CCCC5)CC3)C2=O)C(=O)N1 (centres unmarked) | 60 to 80%
CC(c1ccccc1)N1CCC2(CC1)COc1c2ccc2c1CN(C1CCC(=O)NC1=O)C2=O (centres unmarked) | 60 to 80%
O=C1CCC(N2Cc3c(ccc4c3OCC43CCN(Cc4csc5ccccc45)CC3)C2=O)C(=O)N1 (centres unmarked) | 60 to 80%
[2H]C([2H])([2H])n1cc(-c2cccc(CN3CCC4(CC3)COc3c4ccc4c3CN([C@H]3CCC(=O)NC3=O)C4=O)c2)cn1 | 60 to 80%
CC1(Cn2cc(CN3CCC4(CC3)COc3c4ccc4c3CN(C3CCC(=O)NC3=O)C4=O)cn2)COC1 (centres unmarked) | 40 to 60%
O=C1CCC(N2Cc3c(ccc4c3OCC43CCN(Cc4ccc5cccnc5c4)CC3)C2=O)C(=O)N1 (centres unmarked) | 60 to 80%
O=C1CC[C@H](N2Cc3c(ccc4c3OCC43CCN(Cc4cnn(-c5ccc(C(F)(F)F)cc5)c4)CC3)C2=O)C(=O)N1 | 60 to 80%

====

Target: IKZF2 (Homo sapiens (Human), UniProt Q96SW2+Q9UKS7)
Experiment: IKZF2 HiBiT Assay (Jurkat-IKZF2-HiBiT cell line)
Assay type: cell-based
Conditions: Jurkat-IKZF2-HiBiT cells, 24 hours; read-out: HiBit assay degradation analysis Dmax

compound | experimental.system | Dmax
O=C1CCC(N2Cc3c(ccc4c3OCC43CCN(Cc4ccc5scnc5c4)CC3)C2=O)C(=O)N1 (stereo not shown) [Compound A54] | IKZF2 (Homo sapiens (Human), UniProt Q96SW2+Q9UKS7) | 40 to 60%
O=C1CC[C@H](N2Cc3c(ccc4c3OCC43CCN(Cc4ccc5cn(C6COC6)nc5c4)CC3)C2=O)C(=O)N1 [Compound A285] | IKZF2 (Homo sapiens (Human), UniProt Q96SW2+Q9UKS7) | 60 to 80%
CCC(c1ccccc1)N1CCC2(CC1)COc1c2ccc2c1CN(C1CCC(=O)NC1=O)C2=O (stereo not shown) [Compound A330] | IKZF2 (Homo sapiens (Human), UniProt Q96SW2+Q9UKS7) | 60 to 80%
O=C1CCC(N2Cc3c(ccc4c3OCC43CCN(Cc4cccc5nccnc45)CC3)C2=O)C(=O)N1 (stereo not shown) [Compound A47] | IKZF2 (Homo sapiens (Human), UniProt Q96SW2+Q9UKS7) | 40 to 60%
O=C1CCC(N2Cc3c(ccc4c3OCC43CCN(Cc4ncccn4)CC3)C2=O)C(=O)N1 (stereo not shown) [Compound A206] | IKZF2 (Homo sapiens (Human), UniProt Q96SW2+Q9UKS7) | < 40%
Cn1cc(CN2CCC3(CC2)COc2c3ccc3c2CN(C2CCC(=O)NC2=O)C3=O)cn1 (stereo not shown) [Compound A228] | IKZF2 (Homo sapiens (Human), UniProt Q96SW2+Q9UKS7) | < 40%
CCn1cc(CN2CCC3(CC2)COc2c3ccc3c2CN(C2CCC(=O)NC2=O)C3=O)cn1 (stereo not shown) [Compound A229] | IKZF2 (Homo sapiens (Human), UniProt Q96SW2+Q9UKS7) | 40 to 60%

====

Molecular target: IKZF2 (Homo sapiens (Human), UniProt Q96SW2+Q9UKS7)
Experiment: IKZF2 HiBiT Assay (Jurkat-IKZF2-HiBiT cell line)
Assay type: cell-based
Conditions: Jurkat-IKZF2-HiBiT cells, 24 hours; read-out: HiBit assay degradation analysis DC50
Reported DC50 values are given for each entry in this list.

compound | DC50
O=C1CCC(N2Cc3c(ccc4c3OCC43CCN(Cc4cccc(NC(=O)c5ccc(Cl)cc5)c4)CC3)C2=O)C(=O)N1 (stereo not drawn) [Compound A178] | < 50 nM
CCn1cc(-c2cccc(CN3CCC4(CC3)COc3c4ccc4c3CN(C3CCC(=O)NC3=O)C4=O)c2)cn1 (stereo not drawn) [Compound A145] | < 50 nM
O=C1CCC(N2Cc3c(ccc4c3OCC43CCN(Cc4cnn(Cc5ccc(Cl)cc5)c4)CC3)C2=O)C(=O)N1 (stereo not drawn) [Compound A241] | < 50 nM
O=C1CCC(N2Cc3c(ccc4c3OCC43CCN(Cc4ccc5cccnc5c4)CC3)C2=O)C(=O)N1 (stereo not drawn) [Compound A64] | 50 to 200 nM
O=C1CCC(N2Cc3c(ccc4c3OCC43CCN(Cc4cccc5ccncc45)CC3)C2=O)C(=O)N1 (stereo not drawn) [Compound A40] | 50 to 200 nM
Cn1ccc(COc2cccc(CN3CCC4(CC3)COc3c4ccc4c3CN(C3CCC(=O)NC3=O)C4=O)c2)n1 (stereo not drawn) [Compound A167] | 50 to 200 nM
O=C1CCC(N2Cc3c(ccc4c3OCC43CCN(Cc4cccc(CO)c4)CC3)C2=O)C(=O)N1 (stereo not drawn) [Compound A98] | 50 to 200 nM
O=C1CCC(N2Cc3c(ccc4c3OCC43CCN(C[C@H]4C[C@@H]4c4ccccc4)CC3)C2=O)C(=O)N1 (stereo partly drawn) [Compound A332] | > 500 nM
O=C1CCC(N2Cc3c(ccc4c3OCC43CCN(Cc4ccccc4OCc4ccccn4)CC3)C2=O)C(=O)N1 (stereo not drawn) [Compound A157] | < 50 nM
O=C1CCC(N2Cc3c(ccc4c3OCC43CCN(Cc4cccc(C(=O)O)c4)CC3)C2=O)C(=O)N1 (stereo not drawn) [Compound A99] | > 500 nM
Cc1[nH]c2c(CN3CCC4(CC3)COc3c4ccc4c3CN(C3CCC(=O)NC3=O)C4=O)cccc2c1C (stereo not drawn) [Compound A111] | 50 to 200 nM
CS(=O)(=O)c1cccc(CN2CCC3(CC2)COc2c3ccc3c2CN(C2CCC(=O)NC2=O)C3=O)c1 (stereo not drawn) [Compound A235] | > 500 nM
Cn1cc2c(CN3CCC4(CC3)COc3c4ccc4c3CN(C3CCC(=O)NC3=O)C4=O)cccc2n1 (stereo not drawn) [Compound A67] | 50 to 200 nM
O=C1CCC(N2Cc3c(ccc4c3OCC43CCN(Cc4cccc5c4CCC5)CC3)C2=O)C(=O)N1 (stereo not drawn) [Compound A207] | > 500 nM
Cn1c(=O)oc2ccc(CN3CCC4(CC3)COc3c4ccc4c3CN(C3CCC(=O)NC3=O)C4=O)cc21 (stereo not drawn) [Compound A175] | > 500 nM

====

Target: IKZF2 (Homo sapiens (Human), UniProt Q96SW2+Q9UKS7)
Assay: IKZF2 HiBiT Assay (Jurkat-IKZF2-HiBiT cell line)
Assay type: cell-based
Details: Jurkat-IKZF2-HiBiT cells, 24 hours; read-out: HiBit assay degradation analysis DC50

compound | experimental.system | DC50
O=C1CCC(N2Cc3c(ccc4c3OCC43CCN(Cc4nn(CC5CCCCC5)c5ccccc45)CC3)C2=O)C(=O)N1 (stereo not drawn) | IKZF2 (Homo sapiens (Human), UniProt Q96SW2+Q9UKS7) | 50 to 200 nM
COc1cccc(CN2CCC3(CC2)COc2c3ccc3c2CN(C2CCC(=O)NC2=O)C3=O)c1 (stereo not drawn) | IKZF2 (Homo sapiens (Human), UniProt Q96SW2+Q9UKS7) | > 500 nM
O=C1CCC(N2Cc3c(ccc4c3OCC43CCN(Cc4ccc(F)cc4Cl)CC3)C2=O)C(=O)N1 (stereo not drawn) | IKZF2 (Homo sapiens (Human), UniProt Q96SW2+Q9UKS7) | > 500 nM
O=C1CC[C@H](N2Cc3c(ccc4c3OCC43CCN(Cc4cccc(-c5cnn([C@@H]6CCOC6)c5)c4)CC3)C2=O)C(=O)N1 | IKZF2 (Homo sapiens (Human), UniProt Q96SW2+Q9UKS7) | < 50 nM
O=C1CC[C@H](N2Cc3c(ccc4c3OCC43CCN(Cc4cccc(-c5cc[nH]n5)c4)CC3)C2=O)C(=O)N1 | IKZF2 (Homo sapiens (Human), UniProt Q96SW2+Q9UKS7) | < 50 nM
O=C1CCC(N2Cc3c(ccc4c3OCC43CCN(Cc4ccc5cc[nH]c5n4)CC3)C2=O)C(=O)N1 (stereo not drawn) | IKZF2 (Homo sapiens (Human), UniProt Q96SW2+Q9UKS7) | > 500 nM
O=C1CCC(N2Cc3c(ccc4c3OCC43CCN(Cc4cc(Cl)cc5[nH]ncc45)CC3)C2=O)C(=O)N1 (stereo not drawn) | IKZF2 (Homo sapiens (Human), UniProt Q96SW2+Q9UKS7) | 50 to 200 nM
Cn1ccc2c(CN3CCC4(CC3)COc3c4ccc4c3CN(C3CCC(=O)NC3=O)C4=O)cccc21 (stereo not drawn) | IKZF2 (Homo sapiens (Human), UniProt Q96SW2+Q9UKS7) | < 50 nM
O=C1CCC(N2Cc3c(ccc4c3OCC43CCN(Cc4ccn5nccc5c4)CC3)C2=O)C(=O)N1 (stereo not drawn) | IKZF2 (Homo sapiens (Human), UniProt Q96SW2+Q9UKS7) | > 500 nM
CCn1cc2ccc(CN3CCC4(CC3)COc3c4ccc4c3CN([C@H]3CCC(=O)NC3=O)C4=O)cc2n1 | IKZF2 (Homo sapiens (Human), UniProt Q96SW2+Q9UKS7) | < 50 nM
O=C1CCC(N2Cc3c(ccc4c3OCC43CCN(Cc4cnn(C5CC5)c4)CC3)C2=O)C(=O)N1 (stereo not drawn) | IKZF2 (Homo sapiens (Human), UniProt Q96SW2+Q9UKS7) | > 500 nM
O=C1CCC(N2Cc3c(ccc4c3OCC43CCN(Cc4ccc(C5CC5)cc4)CC3)C2=O)C(=O)N1 (stereo not drawn) | IKZF2 (Homo sapiens (Human), UniProt Q96SW2+Q9UKS7) | 200 to 500 nM
COc1ccccc1CN1CCC2(CC1)COc1c2ccc2c1CN(C1CCC(=O)NC1=O)C2=O (stereo not drawn) | IKZF2 (Homo sapiens (Human), UniProt Q96SW2+Q9UKS7) | 200 to 500 nM
COCCn1ncc2cc(CN3CCC4(CC3)COc3c4ccc4c3CN(C3CCC(=O)NC3=O)C4=O)ccc21 (stereo not drawn) | IKZF2 (Homo sapiens (Human), UniProt Q96SW2+Q9UKS7) | > 500 nM
Cc1c2ccc(CN3CCC4(CC3)COc3c4ccc4c3CN([C@H]3CCC(=O)NC3=O)C4=O)cc2nn1C | IKZF2 (Homo sapiens (Human), UniProt Q96SW2+Q9UKS7) | < 50 nM
